Target: JAK3 (Homo sapiens, UniProt P52333)
Construct: endogenous in cells; mixed lysate 1:2
Sequence (P52333 1-1124): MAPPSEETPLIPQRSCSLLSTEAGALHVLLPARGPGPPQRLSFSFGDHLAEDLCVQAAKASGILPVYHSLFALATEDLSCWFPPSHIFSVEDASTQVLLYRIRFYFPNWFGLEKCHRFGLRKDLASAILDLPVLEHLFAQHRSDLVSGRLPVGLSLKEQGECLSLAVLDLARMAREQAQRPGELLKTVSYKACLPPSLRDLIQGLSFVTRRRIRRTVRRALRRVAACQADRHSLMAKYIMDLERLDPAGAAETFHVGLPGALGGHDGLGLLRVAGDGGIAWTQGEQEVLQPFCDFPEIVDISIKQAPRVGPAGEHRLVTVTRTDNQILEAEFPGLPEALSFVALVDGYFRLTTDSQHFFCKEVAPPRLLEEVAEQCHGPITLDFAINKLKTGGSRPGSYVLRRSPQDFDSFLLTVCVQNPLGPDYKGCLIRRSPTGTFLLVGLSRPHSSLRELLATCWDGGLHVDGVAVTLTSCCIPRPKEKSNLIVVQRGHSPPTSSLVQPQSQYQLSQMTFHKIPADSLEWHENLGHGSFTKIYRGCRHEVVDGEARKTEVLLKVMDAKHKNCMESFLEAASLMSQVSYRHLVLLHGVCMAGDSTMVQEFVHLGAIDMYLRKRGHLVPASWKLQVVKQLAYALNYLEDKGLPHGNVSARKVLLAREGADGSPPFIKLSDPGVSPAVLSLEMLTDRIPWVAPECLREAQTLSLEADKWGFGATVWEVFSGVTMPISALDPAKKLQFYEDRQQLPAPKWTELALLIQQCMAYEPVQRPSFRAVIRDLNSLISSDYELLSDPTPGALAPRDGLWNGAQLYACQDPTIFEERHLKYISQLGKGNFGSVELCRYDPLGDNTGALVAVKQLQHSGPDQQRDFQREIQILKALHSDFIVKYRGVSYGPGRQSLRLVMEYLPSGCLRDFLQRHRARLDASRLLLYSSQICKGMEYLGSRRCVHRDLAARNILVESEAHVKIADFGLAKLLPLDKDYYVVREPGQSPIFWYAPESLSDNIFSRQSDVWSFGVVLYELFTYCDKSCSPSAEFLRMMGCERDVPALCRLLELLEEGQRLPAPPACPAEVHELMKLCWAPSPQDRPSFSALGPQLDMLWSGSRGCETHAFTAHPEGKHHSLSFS
Assay: Kinobeads assay with immunodetection, JAK3
Details: Kinobeads assay, mixed Molt4/Ramos lysate; read-out: Inhibition values (IC50) JAK3
pIC50: −log10 of the molar value.
Below is a list of entries, each paired with its recorded pIC50 value.

# cpdSmiles, pIC50
measured = [
    ("Cc1cnc(Nc2cnn(CC(F)F)c2)nc1NC[C@H]1CCN(CCC#N)C1", "6.00 to 7.00"),
    ("Cn1cc(Nc2ncc(Cl)c(NC[C@H]3CCCN3C(=O)NC3CC3)n2)cn1", "6.00 to 7.00"),
    ("Cn1cc(Nc2ncc(Cl)c(NC[C@@H]3C[C@H](F)CN3C(=O)CCC#N)n2)cn1", "> 7.00"),
    ("Cn1cc(Nc2ncc(Cl)c(NC[C@H]3CCCN3CCNS(C)(=O)=O)n2)cn1", "6.00 to 7.00"),
    ("Cc1cnc(Nc2cnn(CC(F)F)c2)nc1NC[C@H]1CCCN1CCS(C)(=O)=O", "> 7.00"),
    ("CC(=O)N1CCC[C@H]1CNc1nc(Nc2cnn(C)c2)ncc1Cl", "6.00 to 7.00"),
    ("Cc1cnc(Nc2cnn(CC(F)F)c2)nc1NC[C@H]1CCN(C(=O)CCC#N)C1", "6.00 to 7.00"),
    ("CN(C)C(=O)Cn1cc(Nc2ncc(Cl)c(NC[C@H]3CCCN3)n2)cn1", "5.00 to 6.00"),
]

----------
Below is a list of entries, each paired with its recorded IC50 value.
Molecular target: JAK1 (Homo sapiens)
Construct: endogenous in cells; mixed lysate 1:2
Experiment: Kinobeads assay with immunodetection, JAK1
Details: Kinobeads assay, mixed Molt4/Ramos lysate; read-out: Inhibition values (IC50) JAK1
readoutName: IC50

# compound, targetEntity, readoutName, measurement
data = [
    ("Cn1cc(Nc2ncc(F)c(NC[C@H]3CCCN3C(=O)CC#N)n2)cn1 [Example 113]", "JAK1 (Homo sapiens)", "IC50", "< 100 nM"),
    ("CC(=O)N1CCCC[C@@H]1CNc1nc(Nc2cnn(CCO)c2)ncc1Cl [Example 40]", "JAK1 (Homo sapiens)", "IC50", "100 to 1000 nM"),
    ("Cn1cc(Nc2ncc(Cl)c(NC[C@H]3CCN(CCC#N)C3)n2)cn1 [Example 57]", "JAK1 (Homo sapiens)", "IC50", "100 to 1000 nM"),
    ("Cc1cnc(Nc2cnn(CC(F)F)c2)nc1NC[C@H]1CCN(CCC#N)C1 [Example 128]", "JAK1 (Homo sapiens)", "IC50", "< 100 nM"),
    ("Cn1cc(Nc2ncc(F)c(NC[C@H]3CCCN3C(=O)CCC#N)n2)cn1 [Example 114]", "JAK1 (Homo sapiens)", "IC50", "< 100 nM"),
]

----------
Molecular target: JAK1 (Homo sapiens, UniProt P23458)
Construct: endogenous in cells; host or cells: Molt4 (ATCC CRL-1582) and Ramos (ATCC CRL-1596) cells; mixed lysate 1:2
Sequence (P23458 whole entry): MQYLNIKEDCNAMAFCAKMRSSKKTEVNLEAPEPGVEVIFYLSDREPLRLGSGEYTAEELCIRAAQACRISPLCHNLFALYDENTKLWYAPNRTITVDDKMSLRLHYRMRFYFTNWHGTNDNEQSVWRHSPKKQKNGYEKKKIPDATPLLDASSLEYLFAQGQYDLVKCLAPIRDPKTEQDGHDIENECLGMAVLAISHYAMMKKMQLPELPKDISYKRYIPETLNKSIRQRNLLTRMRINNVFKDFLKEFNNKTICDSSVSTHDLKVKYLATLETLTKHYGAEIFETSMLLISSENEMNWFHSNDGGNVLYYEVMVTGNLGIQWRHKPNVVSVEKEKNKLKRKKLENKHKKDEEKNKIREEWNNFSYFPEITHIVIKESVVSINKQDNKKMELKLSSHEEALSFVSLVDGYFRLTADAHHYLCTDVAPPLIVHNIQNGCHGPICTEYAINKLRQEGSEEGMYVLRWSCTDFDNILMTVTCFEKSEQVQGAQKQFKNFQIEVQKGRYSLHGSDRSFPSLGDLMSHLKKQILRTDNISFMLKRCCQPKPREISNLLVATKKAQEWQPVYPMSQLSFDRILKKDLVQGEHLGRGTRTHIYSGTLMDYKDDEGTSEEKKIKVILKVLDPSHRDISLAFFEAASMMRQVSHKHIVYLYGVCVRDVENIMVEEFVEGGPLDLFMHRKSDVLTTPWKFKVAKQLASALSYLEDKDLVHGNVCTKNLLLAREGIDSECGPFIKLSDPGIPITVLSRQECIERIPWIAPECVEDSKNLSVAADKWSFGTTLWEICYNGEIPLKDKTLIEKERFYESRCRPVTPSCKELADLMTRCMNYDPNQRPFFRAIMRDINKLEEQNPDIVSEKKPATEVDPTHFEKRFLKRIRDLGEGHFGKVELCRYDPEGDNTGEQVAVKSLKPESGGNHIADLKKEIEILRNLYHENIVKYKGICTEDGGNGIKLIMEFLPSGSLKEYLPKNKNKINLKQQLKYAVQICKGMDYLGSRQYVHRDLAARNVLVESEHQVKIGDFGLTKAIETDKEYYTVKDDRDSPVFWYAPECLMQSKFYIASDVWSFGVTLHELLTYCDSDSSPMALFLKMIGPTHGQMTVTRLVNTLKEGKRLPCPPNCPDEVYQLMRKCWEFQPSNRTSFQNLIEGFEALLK
Experiment: Kinobeads assay with immunodetection, JAK1
Type: binding
Conditions: Kinobeads assay, mixed Molt4/Ramos lysate; read-out: Inhibition values (IC50) JAK1

# compound, IC50
records = [
    ("CS(=O)(=O)N1CCCC[C@H]1CNc1nc(Nc2cnn(CCO)c2)ncc1Cl", "< 100 nM"),
    ("Cn1cc(Nc2ncc(Cl)c(NC[C@@H]3CCN(S(C)(=O)=O)C3)n2)cn1", "1000 to 10000 nM"),
    ("C=CC(=O)N1CC[C@H](CNc2nc(Nc3cnn(C)c3)ncc2Cl)C1", "100 to 1000 nM"),
    ("CC(C)NC(=O)Cn1cc(Nc2nccc(NC[C@H]3CCCN3C(=O)CC#N)n2)cn1", "100 to 1000 nM"),
    ("C=CS(=O)(=O)N1CCC[C@H]1CNc1nc(Nc2cnn(CCO)c2)ncc1Cl", "< 100 nM"),
    ("Cn1cc(Nc2ncc(Cl)c(NC[C@H]3CCCN3S(=O)(=O)C3CC3)n2)cn1", "< 100 nM"),
    ("CNC(=O)Cn1cc(Nc2ncc(Cl)c(NC[C@@H]3CCCN3)n2)cn1", "1000 to 10000 nM"),
    ("Cl.Cn1cc(Nc2ncc(F)c(NC[C@H]3CCCN3S(C)(=O)=O)n2)cn1 [Example 74, Hydrochloride]", "100 to 1000 nM"),
]

----------
Below is a list of entries, each paired with its recorded pIC50 value.
Target: JAK3 (Homo sapiens)
Construct: endogenous in cells; mixed lysate 1:2
Experiment: Kinobeads assay with immunodetection, JAK3
Details: Kinobeads assay, mixed Molt4/Ramos lysate; read-out: Inhibition values (IC50) JAK3
pIC50: −log10 of the molar value. Where a name gives a salt, the structure may show the parent alone.
readoutName: pIC50

# molecule, targetEntity, measurement
measured = [
    ("Cn1cc(Nc2ncc(Cl)c(NC[C@H]3CCCN3CC(=O)NCC#N)n2)cn1 [Example 99]", "JAK3 (Homo sapiens)", "> 7.00"),
    ("Cn1cc(Nc2ncc(Cl)c(NC[C@@H]3CCCN(C(=O)CCC#N)C3)n2)cn1 [Example 136]", "JAK3 (Homo sapiens)", "> 7.00"),
    ("CC(=O)N1CCCC[C@H]1CNc1nc(Nc2cnn(CCO)c2)ncc1Cl [Example 33]", "JAK3 (Homo sapiens)", "6.00 to 7.00"),
    ("Cn1cc(Nc2ncc(F)c(NC[C@@H]3CCCN3)n2)cn1 [Example 71, Hydrochloride]", "JAK3 (Homo sapiens)", "< 5.00"),
    ("Cn1cc(Nc2ncc(Cl)c(NC[C@H]3CCCN3CCC(F)(F)F)n2)cn1 [Example 80]", "JAK3 (Homo sapiens)", "6.00 to 7.00"),
    ("Cn1cc(Nc2ncc(Cl)c(NC[C@@H]3CCCN3CCC#N)n2)cn1 [Example 81]", "JAK3 (Homo sapiens)", "6.00 to 7.00"),
    ("Cn1cc(Nc2ncc(Cl)c(NC[C@H]3CCN(S(C)(=O)=O)C3)n2)cn1 [Example 24]", "JAK3 (Homo sapiens)", "6.00 to 7.00"),
    ("Cc1cnc(Nc2cnn(C)c2)nc1NC[C@@H]1C[C@H](F)CN1C(=O)CC#N [Example 103]", "JAK3 (Homo sapiens)", "6.00 to 7.00"),
    ("C=CC(=O)N1CC[C@H](CNc2nc(Nc3cnn(C)c3)ncc2Cl)C1 [Example 22]", "JAK3 (Homo sapiens)", "> 7.00"),
    ("Cn1cc(Nc2ncc(F)c(NC[C@H]3CCCN3)n2)cn1 [Example 70, Hydrochloride]", "JAK3 (Homo sapiens)", "< 5.00"),
    ("Cn1cc(Nc2ncc(Cl)c(NC[C@H]3CCCN(C(=O)CCC#N)C3)n2)cn1 [Example 138]", "JAK3 (Homo sapiens)", "> 7.00"),
    ("CCS(=O)(=O)N1CCC[C@@H]1CNc1nc(Nc2cnn(C)c2)ncc1Cl [Example 51]", "JAK3 (Homo sapiens)", "> 7.00"),
    ("Cn1cc(Nc2ncc(Cl)c(NC[C@@H]3CCCN3C(=O)CCC#N)n2)cn1 [Example 92]", "JAK3 (Homo sapiens)", "> 7.00"),
    ("CC(=O)N1CC[C@@H](CNc2nc(Nc3cnn(CCO)c3)ncc2Cl)C1 [Example 27]", "JAK3 (Homo sapiens)", "6.00 to 7.00"),
    ("C=CC(=O)N1CCCC[C@H]1CNc1nc(Nc2cnn(C)c2)ncc1Cl [Example 34]", "JAK3 (Homo sapiens)", "5.00 to 6.00"),
    ("CCNC(=O)N1CCC[C@@H]1CNc1nc(Nc2cnn(C)c2)ncc1Cl [Example 88]", "JAK3 (Homo sapiens)", "6.00 to 7.00"),
    ("Cn1cc(Nc2ncc(Cl)c(NCC3CN(S(C)(=O)=O)C3)n2)cn1 [Example 18]", "JAK3 (Homo sapiens)", "< 5.00"),
    ("Cc1cnc(Nc2cnn(C)c2)nc1NC[C@@H]1C[C@H](F)CN1CCC#N [Example 101]", "JAK3 (Homo sapiens)", "6.00 to 7.00"),
    ("C=CC(=O)N1CC[C@H](CNc2nc(Nc3cnn(CCO)c3)ncc2Cl)C1 [Example 23]", "JAK3 (Homo sapiens)", "> 7.00"),
    ("C=CC(=O)N1CC[C@@H](CNc2nc(Nc3cnn(CCO)c3)ncc2Cl)C1 [Example 29]", "JAK3 (Homo sapiens)", "6.00 to 7.00"),
    ("Cc1cnc(Nc2cnn(C)c2)nc1NC[C@H]1CCN(C(=O)CCC#N)C1 [Example 111]", "JAK3 (Homo sapiens)", "5.00 to 6.00"),
    ("Cn1cc(Nc2ncc(Cl)c(NC[C@H]3CCCCN3S(C)(=O)=O)n2)cn1 [Example 43]", "JAK3 (Homo sapiens)", "> 7.00"),
    ("C=CS(=O)(=O)N1CCCC[C@H]1CNc1nc(Nc2cnn(C)c2)ncc1Cl [Example 38]", "JAK3 (Homo sapiens)", "> 7.00"),
    ("CC(=O)N1CC[C@H](CNc2nc(Nc3cnn(CCO)c3)ncc2Cl)C1 [Example 21]", "JAK3 (Homo sapiens)", "6.00 to 7.00"),
    ("C=CC(=O)N1CC[C@@H](CNc2nc(Nc3cnn(C)c3)ncc2Cl)C1 [Example 28]", "JAK3 (Homo sapiens)", "6.00 to 7.00"),
    ("Cn1cc(Nc2ncc(Cl)c(NCC3COCCN3CCS(C)(=O)=O)n2)cn1 (stereo not shown) [Example 87]", "JAK3 (Homo sapiens)", "> 7.00"),
    ("C=CS(=O)(=O)N1CC[C@H](CNc2nc(Nc3cnn(C)c3)ncc2Cl)C1 [Example 25]", "JAK3 (Homo sapiens)", "> 7.00"),
    ("Cn1cc(Nc2ncc(F)c(NC[C@H]3CCCN3C(=O)CCC#N)n2)cn1 [Example 114]", "JAK3 (Homo sapiens)", "6.00 to 7.00"),
]
